Every entry's value here was drawn from patent US9572794B2.

Molecular target: PAR4 (Homo sapiens)
Construct: 60 μL of washed platelets (Tyrodes buffer containing 0.1% BSA); endogenous in cells
Assay: PAC-1 Binding assay (antagonism of PAR4 mediated αIIBβ3 activation, flow cytometry)
Assay type: cell-based
Conditions: washed platelets; 100% response = DMSO treated control stimulated with 200 μM PAR4-AP; mean values
OBSERVABLE: % Max PAC-1 (%)

compound="COc1ccc(-c2c(CO)n(C)c3ccc(OC(F)(F)F)cc23)cn1 [Example B8]" unit_label=% recorded_value=93.9
compound="COc1ccc(-c2c(COCc3csc(-c4ccccc4)n3)n(Cc3csc(-c4ccccc4)n3)c3ccc(OC(F)(F)F)cc23)cn1 [Example B70]" unit_label=% recorded_value=61.82
compound="COc1ccc(-c2c(CO)n(Cc3ccc(F)cc3F)c3ccc(OC(F)(F)F)cc23)cn1 [Example B2]" unit_label=% recorded_value=19.7
compound="COc1ccc(-c2c(CO)n(Cc3ccc(F)cc3F)c3ccc(C#N)cc23)cn1 [Example B33]" unit_label=% recorded_value=105.0
compound="COc1nn2cc(-c3c(CO)n(Cc4csc(-c5ccccc5)n4)c4ccc(OC(F)(F)F)cc34)nc2s1 [Example B74]" unit_label=% recorded_value=38.32
compound="COc1ccc(-c2c(CO)n(Cc3ccccc3F)c3ccc(OC(F)(F)F)cc23)cn1 [Example B6]" unit_label=% recorded_value=89.0

1. COc1ccc(-c2c(CO)n(Cc3ccccc3Cl)c3cc(OC(C)C)ccc23)cn1 [Example B66]
2. CCOc1ncc(-c2c(CO)n(Cc3ccccc3Cl)c3ccc(OC(F)(F)F)cc23)cn1 [Example B52]
// query Given 1 and given 2 , which shows the smaller recorded % Max PAC-1? Please respond with the label that marks your chosen entry.
// result 2

a. CSc1ncc(-c2c(CO)n(Cc3ccccc3Cl)c3cc(OC(C)C)ccc23)cn1 [Example B64]
b. CSc1ccc(-c2c(CO)n(Cc3ccccc3Cl)c3ccc(OC(F)(F)F)cc23)cc1 [Example B73]
c. COc1ccc(-c2c(CO)n(Cc3cccc(Br)c3)c3ccc(OC(F)(F)F)cc23)cn1 [Example B7]
// query Order the records, beginning with the lowest % Max PAC-1 and ending with the highest. Submit the labels in the order that the ranking request calls for.
// result a, c, b
(a: 18.53%, c: 27.2%, b: 107.63%)

----------
Molecular target: PAR4 (Homo sapiens, UniProt Q96RI0)
Construct: 60 μL of washed platelets (Tyrodes buffer containing 0.1% BSA); endogenous in cells
Sequence (Q96RI0 18-385): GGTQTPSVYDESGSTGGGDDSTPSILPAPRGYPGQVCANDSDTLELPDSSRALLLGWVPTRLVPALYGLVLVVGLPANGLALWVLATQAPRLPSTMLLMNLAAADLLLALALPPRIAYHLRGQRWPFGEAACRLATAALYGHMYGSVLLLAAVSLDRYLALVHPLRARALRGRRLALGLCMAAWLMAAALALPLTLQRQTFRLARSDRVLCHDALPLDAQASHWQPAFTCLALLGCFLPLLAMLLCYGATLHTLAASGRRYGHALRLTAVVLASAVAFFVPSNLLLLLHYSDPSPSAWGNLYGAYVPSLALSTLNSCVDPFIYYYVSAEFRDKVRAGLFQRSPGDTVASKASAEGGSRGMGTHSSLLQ
Experiment: PAC-1 Binding assay (antagonism of PAR4 mediated αIIBβ3 activation, flow cytometry)
Assay type: cell-based
Conditions: washed platelets; 100% response = DMSO treated control stimulated with 200 μM PAR4-AP; mean values
OBSERVABLE: % Max PAC-1 (%)

smiles_notation=COc1ccc(-c2c(CO)n(Cc3ccc(C#N)cc3F)c3cc4c(cc23)OCO4)cn1 observable="% Max PAC-1" unit_label=% recorded_value=98.6
smiles_notation=OCc1c(-c2cncnc2)c2cc(OC(F)(F)F)ccc2n1Cc1ccccc1Cl observable="% Max PAC-1" unit_label=% recorded_value=101.8
smiles_notation=COc1ccc(-c2c(CO)n(Cc3cccc(Br)c3)c3ccc(C#N)cc23)cn1 observable="% Max PAC-1" unit_label=% recorded_value=109.1
smiles_notation=COc1ccc2c(-c3ccc(OC)nc3)c(CO)n(Cc3ccccc3Cl)c2c1 observable="% Max PAC-1" unit_label=% recorded_value=4.31
smiles_notation=COc1ccc(-c2c(CO)n(Cc3ccccn3)c3ccc(C#N)cc23)cn1 observable="% Max PAC-1" unit_label=% recorded_value=113.7
smiles_notation=COc1ccc(-c2c(CO)n(Cc3ccccc3Cl)c3cc(OC(F)(F)F)ccc23)cn1 observable="% Max PAC-1" unit_label=% recorded_value=12.25

1. OCc1c(-c2ccc(F)nc2)c2cc(OC(F)(F)F)ccc2n1Cc1ccccc1Cl
2. COc1ccc(-c2c(CO)n(Cc3csc(-c4ccccc4)n3)c3ccc(OC(F)(F)F)cc23)cn1
3. COc1nn2cc(-c3c(CO)n(Cc4ccccc4Cl)c4ccc(OC(F)(F)F)cc34)nc2s1
4. COc1ncc(-c2c(CO)n(Cc3ccccc3Cl)c3ccc(OC(F)(F)F)cc23)cn1
// query Order the records, beginning with the lowest % Max PAC-1 and ending with the highest. Submit the labels in the order that the ranking request calls for.
// result 4, 3, 1, 2

1. OCc1c(-c2cncnc2)c2cc(OC(F)(F)F)ccc2n1Cc1ccc(F)cc1F
2. COc1ccc(-c2c(CO)n(Cc3cccc(C(F)(F)F)c3)c3ccc(OC(F)(F)F)cc23)cn1
// query Given 1 and given 2 , which shows the smaller recorded % Max PAC-1? Please respond with the label that marks your chosen entry.
// result 2
(2: 59.7%, 1: 96.0%)

P. COc1ccc(-c2c(CO)n(Cc3cccc(Br)c3)c3ccc(S(C)(=O)=O)cc23)cn1
Q. CCOc1ncc(-c2c(CO)n(Cc3ccc(F)cc3F)c3ccc(OC(F)(F)F)cc23)cn1
R. CSc1ncc(-c2c(CO)n(Cc3ccccc3Cl)c3cc(OC(F)(F)F)ccc23)cn1
S. COc1cccc(Cn2c(CO)c(-c3ccc(OC)nc3)c3cc4c(cc32)OCO4)c1
T. CSc1ncc(-c2c(CO)n(Cc3ccc(F)cc3F)c3ccc(OC(F)(F)F)cc23)cn1
// query Order the records, beginning with the lowest % Max PAC-1 and ending with the highest. Submit the labels in the order that the ranking request calls for.
// result R, T, Q, P, S
(R: 5.57%, T: 14.5%, Q: 48.5%, P: 74.3%, S: 129.1%)

P. COc1ccc(-c2c(CO)n(Cc3cc(F)cc(F)c3)c3ccc(OC(F)(F)F)cc23)cn1
Q. COc1ccc(-c2c(CO)n(Cc3ccc(C#N)cc3F)c3ccc(C#N)cc23)cn1
// query # argmax over % Max PAC-1 for candidates P and Q Please respond with the label that marks your chosen entry.
// result Q

----------
Target: PAR4 (Homo sapiens, UniProt Q96RI0)
Construct: 60 μL of washed platelets (Tyrodes buffer containing 0.1% BSA); endogenous in cells
Experiment: PAC-1 Binding assay (antagonism of PAR4 mediated αIIBβ3 activation, flow cytometry)
Assay type: cell-based
Conditions: washed platelets; 100% response = DMSO treated control stimulated with 200 μM PAR4-AP; mean values
OBSERVABLE: % Max PAC-1 (%)

Some molecules with known % Max PAC-1 results, for comparison:
smiles_notation=OCc1c(-c2ccncc2)c2cc(OC(F)(F)F)ccc2n1Cc1ccccc1Cl recorded_value=101.7
smiles_notation=COc1cccc(Cn2c(CO)c(-c3ccc(OC)nc3)c3cc(OC(F)(F)F)ccc32)c1 recorded_value=40.9
smiles_notation=COc1ccc(-c2c(CO)n(Cc3ccccc3)c3cc(OC(F)(F)F)ccc23)cn1 recorded_value=34.32
smiles_notation=CSc1ccc(-c2c(CO)n(Cc3ccccc3Cl)c3ccc(OC(F)(F)F)cc23)cn1 recorded_value=79.22
smiles_notation=COc1cc(Cn2c(CO)c(-c3ccc(OC)nc3)c3cc(OC(F)(F)F)ccc32)cc(OC)c1 recorded_value=110.6

I. OCc1c(-c2ccncc2)c2cc(OC(F)(F)F)ccc2n1Cc1ccc(F)cc1F
II. COc1ccc2c(-c3cnc(SC)nc3)c(CO)n(Cc3ccccc3Cl)c2c1
// query # argmax over % Max PAC-1 for candidates I and II Please respond with the label that marks your chosen entry.
// result I

----------
Biological target: PAR4 (Homo sapiens, UniProt Q96RI0)
Construct: 60 μL of washed platelets (Tyrodes buffer containing 0.1% BSA); endogenous in cells
Experiment: PAC-1 Binding assay (antagonism of PAR4 mediated αIIBβ3 activation, flow cytometry)
Format: cell-based
Settings: washed platelets stimulated with PAR4-AP; PAC-1 binding; sigmoidal dose response, variable slope
OBSERVABLE: IC50 (µM)

1. CSc1ncc(-c2c(CO)n(Cc3ccc(F)cc3F)c3ccc(OC(F)(F)F)cc23)cn1 [Example B48]
2. COc1nn2cc(-c3c(CO)n(Cc4ccccc4Cl)c4ccc(OC(F)(F)F)cc34)nc2s1 [Example B75]
3. COc1ccc(-c2c(CO)n(Cc3ccc(F)cc3F)c3ccc(OC(F)(F)F)cc23)cn1 [Example B2]
// query Give the descending IC50 ranking for the 3 compounds listed above. Submit the labels in the order that the ranking request calls for.
// result 1, 3, 2
(1: 1.98 µM, 3: 0.823 µM, 2: 0.184 µM)

----------
Target: PAR4 (Homo sapiens)
Construct: 60 μL of washed platelets (Tyrodes buffer containing 0.1% BSA); endogenous in cells
Assay: PAC-1 Binding assay (antagonism of PAR4 mediated αIIBβ3 activation, flow cytometry)
Format: cell-based
Settings: washed platelets; 100% response = DMSO treated control stimulated with 200 μM PAR4-AP; mean values
OBSERVABLE: % Max PAC-1 (%)

smiles_notation=COc1cccc(Cn2c(CO)c(-c3ccc(OC)nc3)c3cc(C(F)(F)F)ccc32)c1 recorded_value=108.5
smiles_notation=COc1ccc(-c2c(CO)n(Cc3ccccn3)c3ccc(S(C)(=O)=O)cc23)cn1 recorded_value=100.1
smiles_notation=COc1ccc(-c2c(CO)n(Cc3cccc(F)c3)c3ccc(OC(F)(F)F)cc23)cn1 recorded_value=80.6

A. COc1ccc(-c2c(CO)n(Cc3ccccn3)c3cc4c(cc23)OCO4)cn1
B. OCc1c(-c2ccc(F)nc2)c2cc(OC(F)(F)F)ccc2n1Cc1ccc(F)cc1F
C. CCOc1ccc2c(-c3cnc(SC)nc3)c(CO)n(Cc3ccccc3Cl)c2c1
// query Order the records so the highest % Max PAC-1 appears first and the lowest last. Submit the labels in the order that the ranking request calls for.
// result A, B, C
